assay: Herbal drug pharmacokinetic interaction study of sorafenib in rat plasma (Part A); assay type: in vivo, Male Sprague-Dawley rats; conditions: male, Sprague-Dawley, rat, plasma, iv, 3 mg/kg, Group A1: sorafenib 3 mg/kg, i.v.; rat plasma; mean ± SD, n = 6
property label: Cmax (ng/mL)

> print(dat)
                        structure.as.smiles  property.label  obs.value
1  CNC(=O)c1cc(Oc2ccc(NC(=O)Nc3ccc(Cl)c(C(F)(F)F)c3)cc2)ccn1            Cmax       4600

====

experiment: Herbal drug pharmacokinetic interaction study of sorafenib in rat plasma (Part A); assay type: in vivo, Male Sprague-Dawley rats; conditions: male, Sprague-Dawley, rat, plasma, iv, 3 mg/kg; read-out: Vss
property label: Vd

> print(dat)
                        structure.as.smiles  obs.value
1  CNC(=O)c1cc(Oc2ccc(NC(=O)Nc3ccc(Cl)c(C(F)(F)F)c3)cc2)ccn1  1.19 L/kg
